- ASSAY EXPLANATION: P. aeruginosa PAK growth delay under chelation, dose response, whole organism, PAK strain, OD600, EDDHA, dry powder, set 4 (AID 624075)
- CONDITION DETAILS: P. aeruginosa PAK growth with EDDHA, OD600, 28 h; at 100 µM (top of the series)
MEASUREMENT TYPE: activity change, negative = growth inhibition (%)

COMPOUND: CCCCC(C#N)c1ccc(F)cn1 (stereo unspecified)
ASSAY RESULT: -7.64

COMPOUND: COCCNC(C#N)c1ccc(Cl)cc1 (stereo unspecified)
ASSAY RESULT: -2.09

COMPOUND: N#CC(c1ccc(Cl)cc1)c1ccc(Cl)cn1 (stereo unspecified)
ASSAY RESULT: -13.9

COMPOUND: COCCC(C#N)c1ccc(F)cc1 (stereo unspecified)
ASSAY RESULT: -1.57

COMPOUND: N#CC(c1ccc(Cl)cc1)c1ncccc1Cl (stereo unspecified)
ASSAY RESULT: -18.1

COMPOUND: CCCCC(c1ccc(Cl)cc1)c1nn[nH]n1 (stereo unspecified)
ASSAY RESULT: -6.42
